The reported numbers originate from PubChem BioAssay (NCI).

- Tested on: HCT-15 colon
- procedure text: NCI tumour cell line growth inhibition, 48 h
This section presents molecules with their documented TGI values.

| molecule | subject of test | TGI |
| --- | --- | --- |
| N#C/C(=C\c1ccccc1)C(=O)Nc1nnc(-c2ccccc2)o1 | HCT-15 colon | > 100 µM |
| CC1=C2C(=O)c3ccccc3C(=O)[C@H]2[C@H]2CCO[C@H]2O1 | HCT-15 colon | 86 µM |
| NC(N)=N/N=C/c1c(-c2ccccc2)nc2n1ccc1nc(-c3ccccc3)c(/C=N/N=C(N)N)n12 | HCT-15 colon | > 100 µM |
| O=C(NCCCCCCCCNC(=O)c1cc(-c2ccccc2)nc2ccccc12)c1cc(-c2ccccc2)nc2ccccc12 | HCT-15 colon | > 100 µM |
| C/C(=N\Nc1nc2ccccc2s1)c1ncccn1 | HCT-15 colon | 2.45 µM |

## Input Provide the documented TGI with HCT-15 colon as the system for O=S(=O)(Sc1ccc(Cl)cc1)c1ccc(Cl)cc1
## Output 40.2 µM

## Input API: value(readout= TGI, system= HCT-15 colon, query= Cc1ccc(N2C(=O)C3c4[nH]c5ccccc5c4C4CCC(C(C)(C)C)CC4C3C2=O)cc1 (stereo unspecified) )
## Output > 100 µM

## Input Report TGI for O=C1c2c(c3c4ccccc4[nH]c3c3ccc4ccccc4c23)C(=O)N1CCN1CCCCC1 tested on HCT-15 colon.
## Output 3.38 µM

## Input Give HCT-15 colon TGI for O=[N+]([O-])c1cccc(-c2nc3sccn3c2-c2ccnc(NCCCNS(=O)(=O)c3cccc(F)c3)n2)c1
## Output 12.3 µM

## Input API: value(readout= TGI, system= HCT-15 colon, query= CNC(=O)N1CN(c2ccccc2)C2(CCN(CCCC(=O)c3ccc(F)cc3)CC2)C1=O )
## Output 33.6 µM

## Input Which measured TGI belongs to Cc1cc(N/N=C/c2nc(-c3ccc(Br)cc3)oc2C)c2cc(Cl)ccc2n1 , tested on HCT-15 colon?
## Output > 100 µM

## Input For HCT-15 colon, provide TGI of COc1cccc(/C=C2/Sc3scc(-c4ccccc4)[n+]3C2=O)c1O please.
## Output 29.9 µM

###

- System: MOLT-4 leukemia
- procedure text: NCI tumour cell line growth inhibition, 48 h
Entries and their GI50 values follow.

| compound | quantity kind | recorded result |
| --- | --- | --- |
| CC(C)(C)c1n[nH]c(=S)n(/N=C/c2ccc(F)c(Oc3ccccc3)c2)c1=O | GI50 | 39.8 µM |
| N=C(N)c1ccc(N2CCCN(c3ccc(C(=N)N)cc3)CC2)cc1 | GI50 | > 100 µM |
| COC(=O)C(Cc1ccccc1)NC(=O)NC(=O)NC(=O)CI (configuration not stated) | GI50 | 2 µM |
| C=C1CC[C@@H]2[C@](C)(COC(C)=O)[C@@H](O)CC[C@@]2(C)[C@@H]1COc1ccc2ccc(=O)oc2c1 | GI50 | > 100 µM |
| COc1cccc(NC(=O)c2sc3nc4c(cc3c2N)CN(Cc2ccccc2)CC4)c1 | GI50 | 21.9 µM |
| CCCn1c(C)nc2c1C(=O)c1ccccc1C2=O | GI50 | 19 µM |

## Input // query GI50 value for entry COC(=O)Cn1c2c(c3c(O)cccc31)C(=O)c1ccccc1-2
## Output > 100 µM
